Target: DNA (cytosine-5)-methyltransferase 1 (Homo sapiens)
Sequence (P26358 whole entry, the tested form may be a part): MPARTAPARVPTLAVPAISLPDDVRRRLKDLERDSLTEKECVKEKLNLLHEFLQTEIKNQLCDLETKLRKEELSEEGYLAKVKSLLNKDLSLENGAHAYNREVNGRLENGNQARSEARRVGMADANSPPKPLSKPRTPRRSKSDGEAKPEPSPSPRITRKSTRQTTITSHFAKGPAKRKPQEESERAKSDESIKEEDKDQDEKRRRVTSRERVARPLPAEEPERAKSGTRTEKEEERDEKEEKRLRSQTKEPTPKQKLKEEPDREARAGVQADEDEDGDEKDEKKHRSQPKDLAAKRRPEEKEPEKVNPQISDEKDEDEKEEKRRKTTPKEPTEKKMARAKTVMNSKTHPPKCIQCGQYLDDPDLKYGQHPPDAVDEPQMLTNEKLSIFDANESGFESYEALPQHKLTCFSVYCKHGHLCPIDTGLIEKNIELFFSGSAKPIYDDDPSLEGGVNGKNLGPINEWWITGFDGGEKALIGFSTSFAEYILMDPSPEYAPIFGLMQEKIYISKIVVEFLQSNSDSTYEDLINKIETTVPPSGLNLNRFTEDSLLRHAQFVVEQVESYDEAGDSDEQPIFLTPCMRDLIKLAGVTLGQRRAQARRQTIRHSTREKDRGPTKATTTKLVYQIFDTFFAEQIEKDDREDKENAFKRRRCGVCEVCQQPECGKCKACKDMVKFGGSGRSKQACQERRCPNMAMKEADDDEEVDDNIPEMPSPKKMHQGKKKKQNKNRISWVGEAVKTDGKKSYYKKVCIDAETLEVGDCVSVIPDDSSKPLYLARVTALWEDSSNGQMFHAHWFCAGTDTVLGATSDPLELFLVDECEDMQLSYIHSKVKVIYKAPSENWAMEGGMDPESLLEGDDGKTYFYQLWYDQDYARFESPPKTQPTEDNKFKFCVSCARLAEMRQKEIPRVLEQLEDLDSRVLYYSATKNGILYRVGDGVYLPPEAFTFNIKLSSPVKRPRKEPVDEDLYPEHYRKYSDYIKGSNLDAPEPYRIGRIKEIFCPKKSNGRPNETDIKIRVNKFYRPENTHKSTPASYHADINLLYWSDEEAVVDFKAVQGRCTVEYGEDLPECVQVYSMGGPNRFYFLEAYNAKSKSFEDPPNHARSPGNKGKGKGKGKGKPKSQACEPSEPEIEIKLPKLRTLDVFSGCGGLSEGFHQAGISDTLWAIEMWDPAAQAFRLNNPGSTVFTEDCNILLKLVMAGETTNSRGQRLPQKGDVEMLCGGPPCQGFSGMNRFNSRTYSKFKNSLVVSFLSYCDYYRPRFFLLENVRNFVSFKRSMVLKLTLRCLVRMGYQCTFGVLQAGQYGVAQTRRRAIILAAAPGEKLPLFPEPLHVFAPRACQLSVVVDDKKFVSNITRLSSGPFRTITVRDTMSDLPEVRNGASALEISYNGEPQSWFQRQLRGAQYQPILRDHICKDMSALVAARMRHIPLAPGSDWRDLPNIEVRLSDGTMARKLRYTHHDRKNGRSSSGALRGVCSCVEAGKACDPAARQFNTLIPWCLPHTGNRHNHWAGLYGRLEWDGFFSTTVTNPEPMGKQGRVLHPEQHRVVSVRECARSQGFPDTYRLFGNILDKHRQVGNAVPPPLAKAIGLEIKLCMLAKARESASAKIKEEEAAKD
Assay: Inhibition of human C-terminal domain DNMT1 catalytic domain (351 to 1600 residues) expressed in Escherichia coli BL21-CodonPlus (DE3)-RIL cells assessed as inhibition of methylated dI-dC formation using 1 ug/ml poly dI-dC and [Me-3H]SAM as substrate incubated for 2 hrs by liquid scintillation counting analysis
measure_name: pIC50
Please report pIC50 as the negative decimal logarithm of the molar concentration, giving only the number.

**Query** Could you please provide reported pIC50 for Nc1nc(=O)n([C@H]2C[C@H](O)[C@@H](CO)O2)cc1CNCC(CC[C@H](N)C(=O)O)C[C@H]1O[C@@H](n2cnc3c(N)ncnc32)[C@H](O)[C@@H]1O (stereo partly specified) ? Thanks!
**Result** 5.40

Hey, just so you know, these numbers are from ChEMBL document CHEMBL5137006.
